Origin of values: patent US20220213055A1

Measured pIC50, listed per entry.
# Test system: Glioblastoma cell line U87 cells
# Test Summary: MTT cell viability assay, glioblastoma cells
# Type: cell-based
# Experimental Conditions: Homo sapiens, U-87 MG, 72 h, U87 glioblastoma cells, MTT after three days
pIC50: −log10 of the molar value.

Solved cases (2 shown):
- Compound: "COc1c(Cl)ncnc1N1CCCC(CO)(CCCc2ccccc2)C1 (stereo not drawn) [PLH1302]"
  Measured On: "Glioblastoma cell line U87 cells"
  Measurement Kind: "pIC50"
  Result: "~5.60"
- Compound: "Nc1nccc(N2CCCC(COCc3ccccc3)C2)n1 (stereo not drawn) [PLH2027]"
  Measured On: "Glioblastoma cell line U87 cells"
  Measurement Kind: "pIC50"
  Result: "~4.30"

For reference, reported pIC50 for Nc1nccc(N2CCCC(CCCc3ccccc3)(COCc3ccccc3)C2)n1 (stereo not drawn) [PLH1253] stands at ~5.77
